For each record, write down the corresponding OD450 at 0.0001 nM.
Molecular target: monkey CD19-his protein (monkey)
Test: ELISA, monkey CD19 coated
Method: After incubation for 2 h at 37° C., the plate was washed 3 times with PBS. […] After incubation for 1 h at 37° C., the plate was washed 5 times with PBS. A TMB substrate was added at 50 μL/well. After incubation at room temperature for 10 min, a stop solution (1.0 N HCl) was added at 50 μL/well. The OD450 nm values were read on an ELISA microplate reader (Multimode Plate Reader, EnSight, purchased from Perkin Elmer). […]
Only the number, expressed in OD450, is required.

Problem: Can you look up the measured OD450 at 0.0001 nM of FMC63.26-mIgG1 (antibody, V domains shown, Humanized FMC63; also called FMC63-L2H6) VH: EVTLKESGPVLVKPTETLTLTCTVSGFSLPDYGVSWIRQPPGKALEWLAVIWGSETTYYNSALKSRLTISKDTSKSQVVLTMTNMDPVDTATYYCAKHYYYGGSYAMDYWGQGTTVTVSS VL: DIQMTQSPSSLSASVGDRVTITCRASQDISKYLNWYQQKPGGAVKLLIYHTSRLHSGVPSRFSGSGSGTDYTLTISSLQPEDFATYYCQQGNTLPYTFGGGTKVEIKR for me?
Result: 0.05

Problem: Which OD450 at 0.0001 nM is listed for FMC63.27-mIgG1 (antibody, V domains shown, Humanized FMC63; also called FMC63-L2H7) VH: EVTLKESGPVLVKPTETLTLTCTVSGVSLPDYGVSWIRQPPGKALEWLAVIWGSETTYYNSALKSRLTISKDNSKSQVVLTMTNMDPVDTATYYCAKHYYYGGSYAMDYWGQGTTVTVSS VL: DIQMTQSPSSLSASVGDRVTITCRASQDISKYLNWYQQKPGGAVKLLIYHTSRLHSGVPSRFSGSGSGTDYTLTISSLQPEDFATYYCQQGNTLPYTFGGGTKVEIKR ?
Result: 0.05

Problem: What measured OD450 at 0.0001 nM goes with FMC63.25-mIgG1 (antibody, V domains shown, Humanized FMC63; also called FMC63-L2H5) VH: EVTLKESGPVLVKPTETLTLTCTVSGFSLSDYGVSWIRQPPGKALEWLAVIWGSETTYYNSALKSRLTISKDTSKSQVVLTMTNMDPVDTATYYCAKHYYYGGSYAMDYWGQGTTVTVSS VL: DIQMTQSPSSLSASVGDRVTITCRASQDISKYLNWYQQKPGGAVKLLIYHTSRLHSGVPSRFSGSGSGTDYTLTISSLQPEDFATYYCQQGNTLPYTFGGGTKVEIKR ?
Result: 0.1

Problem: # OD450 at 0.0001 nM lookup, item FMC63-mIgG1 (antibody, V domains shown, Parent murine antibody; also called murine antibody FMC63) VH: EVKLQESGPGLVAPSQSLSVTCTVSGVSLPDYGVSWIRQPPRKGLEWLGVIWGSETTYYNSALKSRLTIIKDNSKSQVFLKMNSLQTDDTAIYYCAKHYYYGGSYAMDYWGQGTSVTVSS VL: DIQMTQTTSSLSASLGDRVTISCRASQDISKYLNWYQQKPDGTVKLLIYHTSRLHSGVPSRFSGSGSGTDYSLTISNLEQEDIATYFCQQGNTLPYTFGGGTKLEITR
Result: 0.05
